Kindly supply the reported GI50 values for the records listed here.
# Tested on: SK-OV-3
# method summary: NCI tumour cell line growth inhibition, 48 h
Active and inactive are the calls of the source. Cut-off read from the data, not from the text of the source: active = GI50 up to about 1.1 µM and inactive = higher.

N#CC1(C#N)NC(c2cccnc2)C(C#N)(C#N)NC1c1cccnc1 (stereo unspecified): > 100 µM (inactive)
CC1=C(C)C(=O)c2c(cc3ccc4ccccc4n23)C1=O: > 100 µM (inactive)
O=C(NCC#CCO)C(F)(F)F: 97.5 µM (inactive)
O=c1/c(=C/c2ccccn2)sc2nc3cc4c(cc3n12)OCCO4: > 100 µM (inactive)
Cc1cc2nc3c(C#N)c4c(c(-c5ccc(Cl)cc5)n3c2cc1C)CCC4: 18.2 µM (inactive)

For SK-OV-3, provide GI50 of O=c1c2cc(Br)cc(Br)c2[nH]c(=S)n1-c1ccccc1 please. > 100 µM (inactive)

Taken from ChEMBL document CHEMBL1201862.
